Origin of values: patent US9340577B2

molecular target: DRB4*0101 (Homo sapiens, UniProt P01903+P13762, G164S); assay: biochemical; assay type: binding
pIC50: −log10 of the molar value. No end group written: not given here.
Measured property: pIC50

| Ordered residues | Measured property | Value comparator | Measurement |
| --- | --- | --- | --- |
| LYGVSFMELIRPFQS [Peptide 89.0041] | pIC50 | = | 8.66 |
| EYVLDLYPEPTDLYC [Peptide 1543.12] | pIC50 | = | 6.80 |
| TYISTSQRDDFLNTV [Peptide 1601.27] | pIC50 | = | 6.32 |
| HKAIELQMALKGLAQ [Peptide 90.0004] | pIC50 | = | 9.00 |
| SNLLSIPETCMVIEP [Peptide 89.0067] | pIC50 | = | 6.02 |
| CQAIELQLALEALNK [Peptide 90.0014] | pIC50 | = | 7.85 |
| HCTLYTAVSSTWHWT [Peptide 89.0157] | pIC50 | < | 4.70 |
| RHLDKKQRFHNIRGR [Peptide 1543.26] | pIC50 | < | 4.70 |
| LSHVKIPVVYRLVWD [Peptide 90.0020] | pIC50 | = | 7.66 |
| TPEWIDRLTVLQHSF [Peptide 89.0069] | pIC50 | = | 6.91 |
| PTGCLKKHGYTVEVQ [Peptide 1601.23] | pIC50 | = | 5.13 |
| DSDIAYYYAQLADSN [Peptide 89.0071] | pIC50 | = | 6.01 |
| LVQIKCPPLLITTNI [Peptide 89.0138] | pIC50 | = | 7.74 |
| RLTVAKLMSNLLSIP [Peptide 89.0065] | pIC50 | = | 8.40 |
| GQVIVCPASVSSNEV [Peptide 90.0016] | pIC50 | = | 6.71 |
| FQVIELQMALETLSK [Peptide 89.0182] | pIC50 | < | 4.70 |
| IIHLKGDPNSLKCLR [Peptide 90.0228] | pIC50 | = | 5.72 |
| DNDVMDDSEIAYKYA [Peptide 90.0069] | pIC50 | < | 4.70 |
| DGVSHAQLPARRAEP [Peptide 1543.18] | pIC50 | = | 5.71 |
| FLSYFKLFLQGTPKH [Peptide 89.0132] | pIC50 | = | 8.06 |
| PEWIQRLTIIQHGID [Peptide 89.0031] | pIC50 | = | 8.48 |
| PEWIDRLTVLQHSFN [Peptide 89.0070] | pIC50 | = | 7.89 |
| GCWRQTSREPRESTV [Peptide 1543.46] | pIC50 | < | 4.70 |
| GKSYFGMSLISFLQG [Peptide 89.0056] | pIC50 | = | 5.71 |
| VDFIVNDNDYLTQAE [Peptide 90.0031] | pIC50 | = | 6.14 |
| CIHSTATDLRTLQQM [Peptide 1543.45] | pIC50 | = | 6.80 |
| CWTYFDNYMRNALDG [Peptide 89.0090] | pIC50 | = | 5.69 |
| HALFTAQEAKQHRDA [Peptide 89.0001] | pIC50 | < | 4.70 |
| SLSLGFLFLLFFWLD [Peptide 68.0022] | pIC50 | < | 4.70 |
| CTLVAGEVDYVGLYY [Peptide 90.0252] | pIC50 | = | 7.70 |
| GHQVVPPMAVSKAKA [Peptide 90.0011] | pIC50 | = | 7.18 |
| DSEIAYKYAQLADTN [Peptide 89.0012] | pIC50 | = | 6.56 |
| DRGIIILLLIRFRCS [Peptide 89.0062] | pIC50 | = | 5.12 |
| WKLIRMECAIMYTAR [Peptide 90.0245] | pIC50 | = | 7.57 |
| LKAICIENNSKTAKR [Peptide 90.0064] | pIC50 | = | 7.07 |
| RLNVCQDKILTHYEN [Peptide 90.0160] | pIC50 | = | 9.21 |
| DDRWPYLHSRLVVFT [Peptide 89.0058] | pIC50 | = | 6.53 |
| TPEWIQRQTVLQHSF [Peptide 89.0010] | pIC50 | = | 7.48 |
| LIQLKCPPILLTTNI [Peptide 89.0038] | pIC50 | = | 6.80 |
| TNCMLIQPPKLRSTA [Peptide 89.0046] | pIC50 | = | 6.32 |
| NSIFDFGEMVQWAYD [Peptide 89.0106] | pIC50 | = | 5.40 |
| RYRFQKYKTLFVDVT [Peptide 90.0019] | pIC50 | = | 5.39 |
| PEWIEQQTVLQHSFD [Peptide 89.0105] | pIC50 | = | 6.01 |
| KIGMIDDVTPISWTY [Peptide 90.0087] | pIC50 | = | 5.51 |
| SWGMVVLLLVRYKCG [Peptide 89.0005] | pIC50 | = | 5.38 |
| ELQMALETLSKSQYS [Peptide 89.0183] | pIC50 | < | 4.70 |
| TTPIIHKLGDRNSLK [Peptide 1601.17] | pIC50 | = | 7.72 |
| CMLIQPPKLRSTAAA [Peptide 89.0047] | pIC50 | = | 6.25 |
| RQHLANHPAATHTKA [Peptide 89.0155] | pIC50 | < | 4.70 |
| NCNSNTTPIVHLKGD [Peptide 1601.08] | pIC50 | = | 5.58 |
| QMMLETLNNTEYKNE [Peptide 1601.22] | pIC50 | = | 6.26 |
| GVYYIKDGDTTYYVQ [Peptide 90.0216] | pIC50 | < | 4.70 |
